assay: chemical genetic growth profiling, strain panel (AID 1159580);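 further: tested at 20 µM; growth read once vehicle control cultures reached saturation at 30 °C; 1 = growth at the plate median or of vehicle wells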; details: S. cerevisiae deletion strains, growth OD, locus YNL209W, strain ssb2, stronger effect = lower value
In all, about 5,500 compounds went through this assay and about 2,000 (36%) were called active. Another 18% or so got no clear call; they are omitted. The list shows a part of the results.
readout_name: normalized growth

Nc1ccc(S(=O)(=O)Nc2ccnn2-c2ccccc2)cc1
0.994 (inactive)
C#C[C@]1(OC(C)=O)CCC2C3CCC4=C/C(=N\O)CCC4C3CC[C@@]21CC (stereo not given in full)
0.846 (active)
COc1ccc2[nH]cc(CCN)c2c1
1.01 (inactive)
COC(=O)C[C@H]1C(C)(C)C(=O)[C@@H]2CC3C4=CC(=O)O[C@@H](c5ccoc5)[C@]4(C)CCC3[C@@]1(C)C2=O (stereo not given in full)
0.989 (inactive)

Prompt: Respond only with normalized growth recorded for CC(C)=CCCC1(C)C=Cc2c(O)c3c(c(CC=C(C)C)c2O1)OC12C(=CCCC1C(C)(C)O[C@@]2(C/C=C(\C)C(=O)O)C(=O)O)C3=O (stereo not given in full)
Completion: 0.783 (active)

Prompt: Fill in normalized growth for record C#C[C@]1(O)CCC2C3CCC4=C(CCC(=O)C4)C3CC[C@@]21C (stereo not given in full)
Completion: 0.989 (inactive)

Prompt: Give a short answer stating reported normalized growth for `CC(C)(C#N)O[C@@H]1O[C@H](CO)[C@@H](O)[C@H](O)[C@H]1O` .
Completion: 1.01 (inactive)

Prompt: Assign normalized growth to the following record: `Nc1c2ccccc2nc2ccccc12`
Completion: 0.663 (active)

Prompt: Report normalized growth for C#C[C@]1(O)CCC2C3CCC4=CC(=O)CC[C@@H]4C3CC[C@@]21C (stereo not given in full)
Completion: 0.997 (inactive)

Prompt: Give the measured normalized growth for `CC(C)(Oc1ccc(CCNC(=O)c2ccc(Cl)cc2)cc1)C(=O)O`
Completion: 0.98 (inactive)

* * *

assay: chemical genetic growth profiling, strain panel (AID 1159580); settings: S. cerevisiae deletion strains, growth OD, locus YKL190W, strain CNB1
The whole screen tested about 5,500 compounds, of which about 2,000 (36%) were called active. About 18% were inconclusive and are not listed. Rule as the data show it: active = normalized growth mostly below about 0.91 (no sharp cut-off); inconclusive = no clear call, values can overlap the other calls; inactive = mostly above about 0.92. Some of the results follow.
Respond only with the outcome that fits, drawn from TRUE (active), FALSE (inactive)

Here's what some known entries look like.
CC(C)(C)c1nccc(-c2nn(-c3ccc(F)cc3)ccc2=O)n1
FALSE
O=C(N/N=C\c1c(O)ccc2ccccc12)N/N=C\c1c(O)ccc2ccccc12
FALSE
O=C1ON=C(c2ccccc2)/C1=C/c1ccc(Cl)cc1
TRUE
NC(Cc1c[nH]c2ccccc12)C(=O)O (configuration not stated)
FALSE
O=C1ON=C(CSc2ccccc2)/C1=C/c1ccc(Cl)cc1
TRUE
Cc1c(Br)sc2ccc(Cl)cc12
FALSE

Would you kindly look at the next entry?
Prompt: Which outcome was assigned to `CCCCCCCCCCCC[C@H](C(=O)O)[C@@H](C)C(=O)O` in this test?
Completion: FALSE

* * *

assay: chemical genetic growth profiling, strain panel (AID 1159580); conditions: S. cerevisiae deletion strains, growth OD, locus YOR119C, strain RIO1
Among all 5,500 compounds or so, about 2,000 (36%) were called active. Another 18% or so got no clear call; they are omitted. Cut-off read from the data, not from the text of the source: active = normalized growth mostly below about 0.91 (no sharp cut-off); inconclusive = no clear call, values can overlap the other calls; inactive = mostly above about 0.92. The list shows a part of the results.
Thanks in advance; please answer with one of these: 1 = active, 0 = inactive

For orientation, consider the following solved cases.
CC(C)(C)C(=O)N(Cc1cccnc1)Cc1ccc(Cl)cc1Cl
0
O=S(=O)(c1ccc(Cl)cc1)N(Cc1cccnc1)Cc1ccc(Cl)cc1Cl
1
OC1CCN(c2cc(C(F)(F)F)nc3cc(Cl)cc(Cl)c23)CC1
0
O=C(c1cccs1)N(Cc1cccnc1)Cc1ccc(Cl)cc1Cl
0

// switching to the query compound
Prompt: Call for entry `Cc1ccc(S(=O)(=O)n2c(Sc3ccc([N+](=O)[O-])cc3[N+](=O)[O-])nc3cc(C)ccc32)cc1` :
Completion: 0

* * *

experiment: chemical genetic growth profiling, strain panel (AID 1159580);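 further: tested at 20 µM; growth read once vehicle control cultures reached saturation at 30 °C; 1 = growth at the plate median or of vehicle wells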; conditions: S. cerevisiae deletion strains, growth OD, locus YLR320W, strain mms22, stronger effect = lower value
In all, about 5,500 compounds went through this assay and about 2,000 (36%) were called active. Not shown: some 18% with an inconclusive outcome. Some of the results follow.
Each record is given satisfied if its reported normalized growth is strictly below 1. Records at or above 1 are given not satisfied.

CC(C)=CCCC1(C)C=Cc2c(O)c3c(c(CC=C(C)C)c2O1)OC12C(=CCCC1C(C)(C)O[C@@]2(C/C=C(\C)C(=O)O)C(=O)O)C3=O (some centres undefined)
satisfied
Cc1cc(-n2c(=O)[nH]c(=O)n(C)c2=O)ccc1Oc1ccc(SC(F)(F)F)cc1
satisfied
CC(CC(=O)C1OC1(C)C)C1C(=O)CC2(C)C3=CCC4C(C)(C)C(OC5OCC(O)C(O)C5O)CCC45CC35C(O)CC12C (centres undefined)
not satisfied

Prompt: Identify whether the compound `Nc1ccc(S(=O)(=O)Nc2ccnn2-c2ccccc2)cc1` records normalized growth below 1.
Completion: not satisfied

Prompt: Could you please tell me whether normalized growth recorded for `C/C=C1\[C@H]2C=C(C)C[C@]1(N)c1ccc(=O)[nH]c1C2` is less than 1?
Completion: not satisfied

* * *

experiment: chemical genetic growth profiling, strain panel (AID 1159580);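 further: tested at 20 µM; growth read once vehicle control cultures reached saturation at 30 °C; 1 = growth at the plate median or of vehicle wells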; conditions: S. cerevisiae deletion strains, growth OD, locus YER015W, strain faa2, stronger effect = lower value
The whole screen tested about 5,500 compounds, of which about 2,000 (36%) were called active. Not shown: some 18% with an inconclusive outcome. Some of the results follow.
readout_name: normalized growth
Form: value (number only, do not type unit).

C[C@H]1[C@H](C)CC[C@]2(CO)CC[C@]3(C)C(=CCC4[C@@]5(C)CC[C@H](O)C(C)(C)C5CC[C@]43C)[C@H]12 (stereo partly specified)
1

Prompt: Note normalized growth for the compound shown: CC1(C)CC[C@@]2(C(=O)O)C(C1)C1=CCC3[C@@]4(C)CC[C@H](O)C(C)(C)C4CC[C@@]3(C)[C@]1(C)C[C@@H]2O (stereo partly specified)
Completion: 1.03

Prompt: For C/C=C(/C)C(=O)O[C@@H]1[C@H](OC(C)=O)[C@@]2(CO)C(CC1(C)C)C1=CCC3[C@@]4(C)CC[C@H](O[C@@H]5O[C@H](C(=O)O)[C@@H](O[C@@H]6O[C@H](CO)[C@@H](O)[C@H](O)[C@H]6O)[C@H](O)[C@H]5O[C@@H]5O[C@H](CO)[C@@H](O)[C@H](O)[C@H]5O)[C@](C)(CO)C4CC[C@@]3(C)[C@]1(C)C[C@H]2O (stereo partly specified) , write its normalized growth.
Completion: 0.983

Prompt: State its normalized growth for this compound: `NC12CC3CC(CC(C3)C1)C2`
Completion: 1.01

Prompt: Item C[C@@H]1CC[C@]2(C(=O)O)CC[C@]3(C)C(=CCC4[C@@]5(C)CC[C@H](O)C(C)(C)C5CC[C@]43C)C2[C@H]1C (stereo partly specified) : provide normalized growth
Completion: 1.01

Prompt: Report measured normalized growth; entry is CC(CC(=O)C1OC1(C)C)C1C(=O)CC2(C)C3=CCC4C(C)(C)C(OC5OCC(O)C(O)C5O)CCC45CC35C(O)CC12C (stereo unspecified)
Completion: 1.02

* * *

assay: chemical genetic growth profiling, strain panel (AID 1159580);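 further: tested at 20 µM; growth read once vehicle control cultures reached saturation at 30 °C; 1 = growth at the plate median or of vehicle wells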; details: S. cerevisiae deletion strains, growth OD, locus YER015W, strain faa2, stronger effect = lower value
About 2,000 (36%) of roughly 5,500 compounds were called active. Not shown: some 18% with an inconclusive outcome. The list shows a part of the results.
Measured normalized growth accompanies every entry in the list below.
Output: the number by itself.

These recorded examples may help you get a feel for the data.
COc1cccc2c1C(=O)c1c(O)c3c(c(O)c1C2=O)C[C@@](O)(C(=O)CO)C[C@@H]3O[C@H]1C[C@H](N)[C@@H](O)[C@H](C)O1
0.801
C#C[C@]1(O)CCC2C3CCC4=CC(=O)CC[C@@H]4C3CC[C@@]21C (stereo partly specified)
0.974
COc1c(-c2coc3cc4c(cc3c2=O)CC(O)C(C)(C)O4)ccc2c1C=CC(C)(C)O2 (stereo unspecified)
0.991
COc1cccc2c1C(=O)c1c(O)c3c(c(O)c1C2=O)C[C@@](O)(C(C)=O)C[C@@H]3O[C@H]1C[C@H](N)[C@H](O)[C@H](C)O1
0.914
CC(=O)O[C@@H]1CC[C@@]2(C)C(CC[C@]3(C)C2CC=C2C4CC(C)(C)CC[C@]4(C(=O)O)CC[C@]23C)C1(C)C (stereo partly specified)
0.936

Prompt: Answer with the recorded normalized growth for the molecule listed here: `Nc1ccc(S(=O)(=O)Nc2cnc3ccccc3n2)cc1`
Completion: 1

Prompt: Output normalized growth of `CCOP(=S)(OCC)Oc1nc(Cl)c(Cl)cc1Cl`
Completion: 0.964

Prompt: Provide normalized growth value for the following molecule: C#C[C@]1(O)CCC2C3CCC4=C(CCC(=O)C4)C3CC[C@@]21C (stereo partly specified)
Completion: 0.994

Prompt: Check the records and state normalized growth for C[C@@H]1OC(O[C@H]2C(O[C@H]3CC[C@@]4(C)C(CC[C@]5(C)C4CC=C4C6CC(C)(C)CC[C@]6(C(=O)O)CC[C@]45C)[C@]3(C)CO)OC[C@H](O)[C@@H]2O)[C@H](O)[C@H](O)[C@H]1O (stereo partly specified)
Completion: 0.059
